- Tested on: SF-295 CNS
- test-name: NCI-60 one-dose screen, 48 h (100 = growth as untreated, 0 = no growth, -100 = all killed)
- condition-description: 10 µM unless noted
The panel holds about 83,000 compounds, 20% with a hit somewhere; the sample as a whole holds those more often. Activity calls are given as the source filed them. The calls were made as follows: active = growth percent below 10; inactive = the rest.
measured-parameter: growth

Example results:
| molecule | measurement |
| --- | --- |
| COC(CC(F)F)c1cn(S(=O)(=O)c2ccc(C)cc2)c2ccccc12 (centres undefined) | 15% (inactive) |
| CC(C)c1ccc(C(=O)Nc2sc3c(c2C(N)=O)CCC(=O)C3)cc1 | -3.53% (active) |
| COc1ccc(/C=N/NC(=O)c2ccc(-n3cc(-c4ccccc4)nn3)cc2)cc1OC | 97.7% (inactive) |
| O=C(c1nn(-c2ccccc2)c2c1CC(NCc1ccc(F)cc1)CC2)N1CCCCC1 (centres undefined) | 102% (inactive) |
| Cn1ccnc1C(=O)/C=C/c1ccc(CC(=O)Nc2cc(C(F)(F)F)cc(C(F)(F)F)c2)cc1 | 84.3% (inactive) |

Report growth for each item below.
1. CC(=O)O[C@H]1CC2CCC3C(CC[C@@]4(C)C3C[C@H]([N+]3(C)CCCCC3)[C@@H]4OC(C)=O)[C@@]2(C)C[C@@H]1N1CCCCC1 (some centres undefined)
2. COc1ccc2c(c1)CC[C@H](O)/C2=C/c1cc(OC)c(OC)c(OC)c1
3. O=C(N(c1ccccc1)c1ccccc1)n1cc(I)c2nc(Cl)nc(Cl)c21
4. O=C(N/N=C/c1c(Cl)cccc1Cl)c1cccnc1Nc1cccc(C(F)(F)F)c1

Key:
1. 96.4% (inactive)
2. 8.44% (active)
3. 48.2% (inactive)
4. 28.8% (inactive)

====

- System: OVCAR-4 ovarian
- test-name: NCI-60 one-dose screen, 48 h (100 = growth as untreated, 0 = no growth, -100 = all killed)
- condition-description: 10 µM unless noted
The panel holds about 83,000 compounds, 20% with a hit somewhere; the sample as a whole holds those more often. Active and inactive are the calls of the source. The calls were made as follows: active = growth percent below 10; inactive = the rest.
measured-parameter: growth

| compound | growth |
| --- | --- |
| Cn1ccnc1C(=O)/C=C/c1ccc(C(=O)Nc2ccccc2O)cc1 | 36.4% (inactive) |

Each compound below has a reported value. Please supply its growth.
1. O=C1c2c(c3c4ccccc4[nH]c3c3ccc4ccccc4c23)C(=O)N1CCN1CCOCC1
2. CCOC(=O)NC(C)C
3. O=S(=O)(Nc1cc(F)cc(Cl)c1)c1ccc(-c2cnc(C3CC3)o2)cc1

Key:
1: 57.7% (inactive); 2: 107% (inactive); 3: 52.5% (inactive)

====

Can you tell me growth for the items I'm about to list?
- Test system: U251 CNS
- test-name: NCI-60 one-dose screen, 48 h (100 = growth as untreated, 0 = no growth, -100 = all killed)
- condition-description: 10 µM unless noted
- Protocol: Growth inhibition of the U251 human tumor cell line is measured as a screen for anti-cancer activity. Cells are grown in 96 well plates and exposed to the test compound for 48 hours. Compounds are tested at a single concentration, which is 10^-5 M for most compounds. The reported endpoint is percent growth (GI% or GIPRCNT), where numbers from 0 - 100% represent growth inhibition, and numbers from -100% - 0 represent cell death. For example, a value of 40 represents 60% growth inhibition. […]
This is part of a sample that, as a whole, favours compounds with a hit. Of some 83,000 tested, about 20% had one in any assay.
Give bare numbers, in %.

| molecule | growth / % |
| --- | --- |
| COC(=O)c1nc(-c2ccc(C)cc2)oc1S(=O)(=O)c1cccc(OC)c1 | 96.5 |
| N#CSCC1CC(O)(c2ccccc2)CC(c2ccc(F)cc2)O1 (stereo not given) | -51.2 |
| C=C1C(=O)O[C@H]2[C@H]1CC/C(COC(=O)c1cc3ccccc3s1)=C\CC[C@@]1(C)O[C@@H]21 | -82.6 |
| COc1ccc(OC)c(-c2nc(SCC(=O)c3ccc(C#N)cc3)[nH]c(=O)c2C#N)c1 | 103 |

List reported growth for each of these molecules:
1. N#Cc1c(-c2ccccc2)[nH]c2ncc(-c3ccccc3)n2c1=O
2. CCN(CC)CC(O)COc1c(Br)c(Br)c(Br)c2c1OC(C)(C)C2 (stereo not given)
3. O=C(CN1C(=O)S/C(=C\c2ccccc2)C1=O)Nc1ncc(Cc2ccccc2Cl)s1
4. CS(=O)(=O)Nc1cncc(-c2ccc3ncnc(Nc4cncc(Cl)c4)c3c2)c1
5. CCc1ncnc2c1ccn2C(C)c1ccc(OC)c(F)c1 (stereo not given)
6. Cc1cc(C)c2c(c1)N(C)c1ncnc(-n3cnc4cc(C)ccc43)c1CC2C (stereo not given)

Key:
1. 93.1
2. 85.6
3. 95
4. 59.2
5. 35.3
6. 14.6

====

- Tested on: UACC-257 melanoma
- test-name: NCI-60 one-dose screen, 48 h (100 = growth as untreated, 0 = no growth, -100 = all killed)
- condition-description: 10 µM unless noted
Compounds without any hit were thinned out: in the full panel of roughly 83,000, 20% have a hit.
Assignment: determine reported growth for the given compounds.
Answers are plain numbers, in %.

Some solved cases for reference:
| compound | study-system | unit-info | growth |
| --- | --- | --- | --- |
| O=C(CSC(=S)n1cnnc1)NC(=O)c1ccccc1 | UACC-257 melanoma | % | 113 |
| COC(=O)CC[C@@H]1O[C@@H](c2cccc(C(F)(F)F)c2)[C@@H](O)[C@H]1O | UACC-257 melanoma | % | 106 |
| COc1cc2c(cc1OCCCN1CCN(CCCOc3cc4c(cc3OC)C(=O)N3CCC[C@H]3C=N4)CC1)C=CC(C)(C)O2 | UACC-257 melanoma | % | -62.4 |
| C=CCOC(=O)Nc1cccn([C@H](Cc2ccccc2)C(=O)NCCC(C)C)c1=O | UACC-257 melanoma | % | 102 |
| CCC(=O)Oc1ccc(-c2ccccc2)cc1Br | UACC-257 melanoma | % | 106 |
| Nc1ncnc2c1N=C(c1ccc(Br)cc1)CC(c1cccc(Nc3ccnc4cc(C(F)(F)F)ccc34)c1)N2 (stereo unspecified) | UACC-257 melanoma | % | 66.6 |
| CC/C=C\C[C@H](O)C/C=C1/C(=O)C=C[C@@H]1C/C=C\CCCC(=O)N(C)C | UACC-257 melanoma | % | -9.75 |
| CC(C)COc1nc2c(c(=O)n(C)c(=O)n2C)n1C | UACC-257 melanoma | % | 67.2 |
| CCCCCCCC[C@@H]1N[C@@H](C(=O)OC)Cc2c1[nH]c1ccccc21 | UACC-257 melanoma | % | 101 |
| CSc1nnc(-c2cc3c([nH]c4ccccc43)c(-c3cccc(O)c3)n2)n1-c1ccccc1 | UACC-257 melanoma | % | 59.9 |

State recorded growth for all listed compounds.
1. Cc1cc(N2CCN(CC(=O)Nc3ccc4c(ccn4C)c3)CC2)nc(N2CCCCCC2)n1
2. COc1ccc(C(C)=O)cc1S(=O)(=O)Nc1c(N)nc(SC)[nH]c1=O
3. O=c1[nH]c(Cc2nc3ccccc3s2)nc2cc(Br)ccc12
4. N=C(N)c1ccc(-c2ccc(-c3ccc(Cl)c(Cl)c3)s2)nc1
5. O=C(/C=C/c1ccco1)Nc1ncc(Cc2cccc(C(F)(F)F)c2)s1
6. O=C(Cn1cc(CSc2nc3ccccc3o2)nn1)Nc1ccc(F)cc1F
7. O=C1NC(=O)C(Cc2ccc(OCc3ccc(-c4ccc(Cl)cc4Cl)cc3)cc2)S1 (stereo unspecified)

Key:
1. 91.9
2. 103
3. 72.2
4. 87.9
5. 25.4
6. 103
7. 55.7

List growth for every entry below, keeping the order given.
1. CN(C)S(=O)(=O)c1cccc(C(=O)Nc2nc(-c3ccc(F)c(F)c3)cs2)c1
2. Nc1nc2ccc(-c3nc4ccc5[nH]ncc5c4c4c3CCCC4)cc2s1
3. CCOC(=O)n1ccn(C)c1=S
4. CCCCCOC(=O)c1c(C)[nH]c(/C=C2\N=C(c3ccc[nH]3)C=C2OC)c1C

Key:
[42.5, 88.1, 97.3, -20.1]

====

- Tested on: A549/ATCC NSCLC
- test-name: NCI-60 one-dose screen, 48 h (100 = growth as untreated, 0 = no growth, -100 = all killed)
- condition-description: 10 µM unless noted
The panel holds about 83,000 compounds, 20% with a hit somewhere; the sample as a whole holds those more often.
Outcome: Fulfilled for growth of at least 40%; Not fulfilled for anything lower.

Use these answered entries as a reference point.
| compound | class-name |
| --- | --- |
| COc1ccc(C(=O)C/C(=C\c2ccc(Cl)cc2)C(=O)NCc2ccccc2)cc1 | Fulfilled |
| COc1ccc(Nc2ncc(Br)c(NCCCNC(=O)c3cccs3)n2)cc1 | Fulfilled |
| Nc1ncnc2c1c(-c1cccc(Cl)c1)nn2CC(=O)N1CCOCC1 | Fulfilled |
| O=C(Nc1cccc(-c2ccc(N3CCOCC3)nn2)c1)Nc1cccc(C(F)(F)F)c1 | Fulfilled |
| CC/C(=C(/c1ccc(Cl)cc1)c1ccc(OCCN2CCCCC2)cc1)c1ccc(OC)cc1 | Fulfilled |

Turning to the following compound.
Exercise: Say whether CC1=C([Se]CC(OC(=O)CC[Se]c2ccccc2)C(=O)NC(C)(C)C)C(=O)c2ccccc2C1=O (stereo unspecified) shows growth of 40% or more.
Key: Not fulfilled
